B1: SLC2A12 (parent)
chain: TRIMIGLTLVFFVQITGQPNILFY

Variants of: B1
Experiment: protein stability index of a GFP-peptide fusion (GPS, HEK-293T) (PSI 1-6); higher = more stable;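 also: lentivirally expressed fusions sorted by FACS into six bins by GFP to DsRed ratio, PSI derived from sequencing read proportions per bin multiplied by bin number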
Conditions: c terminus: a fixed tail appended
Kind request: treat 3 as inclusive, so protein stability index at 3 or higher is Satisfied, anything lower is Not satisfied.

• T1P = Not satisfied
• I5Y = Not satisfied
• Q14Y = Satisfied
• V13N = Satisfied
• V10C = Not satisfied
• F11N = Not satisfied
• I5E = Satisfied
• T8G = Not satisfied
• Q18S = Satisfied
• G6M = Not satisfied
• L9R = Satisfied
• T16H = Satisfied
• G6R = Not satisfied
• T16P = Satisfied
• F12N = Satisfied
• N20M = Satisfied
• F12S = Satisfied
• L22K = Not satisfied
• F12I = Not satisfied
• Q14H = Not satisfied
